Below are pIC50 values measured for UniProt:P08581.
pIC50: −log10 of the molar value. Where a name gives a salt, the structure may show the parent alone.
result_type: pIC50

>>> quantitative_result("CCN1CCC(n2cc(-c3cnc4[nH]cc(Cc5c(F)ccc(OC)c5F)c4c3)c(C#N)n2)CC1 [Embodiment 45]")
8.04
>>> quantitative_result("CC(c1c(Cl)ccc(F)c1Cl)c1c[nH]c2ncc(-c3cnn(CCO)c3)cc12 (single isomer, unassigned) [Comparative Compound 1a, reference compound]")
6.12
>>> quantitative_result("COc1cc(OC)c(F)c(Cc2c[nH]c3ncc(-c4cnn(C5CCN(C(C)C)CC5)c4)cc23)c1F [Trifluoroacetate salt of embodiment 14]")
7.85
>>> quantitative_result("COc1ccc(F)c(Cc2c[nH]c3ncc(-c4cn(C5CCNCC5)nc4C)cc23)c1F [Hydrochloride of embodiment 36]")
7.56
>>> quantitative_result("COc1cc(OC)c(F)c(Cc2c[nH]c3ncc(-c4cn(C5CCN(C)CC5)nc4C#N)cc23)c1F [Hydrochloride of embodiment 43]")
7.24
>>> quantitative_result("COc1cc(OC)c(F)c(Cc2c[nH]c3ncc(-c4cnn(CCCNC(C)C)c4)cc23)c1F [Hydrochloride of embodiment 72]")
7.15

###

Below are IC50 values measured for human c-Met (Homo sapiens).
Where a name gives a salt, the structure may show the parent alone.
result_type: IC50 (nM)

>>> quantitative_result("CCN1CCC(c2cncc(-c3cnc4[nH]cc(Cc5c(F)c(OC)cc(OC)c5F)c4c3)n2)CC1 [Hydrochloride of embodiment 65]")
135
>>> quantitative_result("COc1cc(OC)c(F)c(Cc2c[nH]c3ncc(-c4cnn(C5CCNCC5)c4)nc23)c1F [Trifluoroacetate salt of embodiment 5]")
47.2
>>> quantitative_result("CCN1Cc2cc(-c3cnc4[nH]cc(Cc5c(F)c(OC)cc(OC)c5F)c4c3)cnc2C1 [Trifluoroacetate salt of embodiment 51]")
84.1

###

assay_procedure: Pharmacokinetic evaluation in mice (IV and PO)
Assay type: in vivo, male CD-1 mice
applied_conditions: male, CD-1, mouse, plasma, PO 10 mg/kg, read-out: Cmax (peak concentration)
result_type: Cmax (nM)

>>> quantitative_result("COc1cc(OC)c(F)c(Cc2c[nH]c3ncc(-c4cnn(CCO)c4)cc23)c1F")
5040
>>> quantitative_result("COc1nc(OC)c(F)c(Cc2c[nH]c3ncc(-c4cnn(CCO)c4)cc23)c1F")
877

###

Below are log10(IC50) values measured for human c-Met (Homo sapiens, UniProt P08581).
Counter-ions that a name gives are not always drawn.
result_type: log10(IC50) (log10 of the value in µM)

>>> quantitative_result("COCCNCCn1cc(-c2cnc3[nH]cc(Cc4c(F)c(OC)cc(OC)c4F)c3c2)cn1 [Hydrochloride of embodiment 70]")
-1.50
>>> quantitative_result("COc1cc(OC)c(F)c(Cc2n[nH]c3ncc(-c4cnn(C5CCNCC5)c4)cc23)c1F [Hydrochloride of embodiment 2]")
-2.11
>>> quantitative_result("COc1cc(OC)c(F)c(Cc2c[nH]c3ncc(-c4cnn(C5CCC(O)CC5)c4)cc23)c1F (stereo not drawn) [Trifluoroacetate salt of embodiment 31]")
-2.16
>>> quantitative_result("COc1cc(OC)c(F)c(Cc2c[nH]c3ncc(-c4ccc5c(c4)NC(=O)C54CCNCC4)cc23)c1F [Trifluoroacetate salt of embodiment 54]")
-1.78
>>> quantitative_result("COc1cc(OC)c(F)c(Cc2c[nH]c3ncc(-c4ccc(C5(C#N)CCNCC5)cc4)cc23)c1F [Hydrochloride of embodiment 57]")
-1.31
>>> quantitative_result("COc1cc(OC)c(F)c(Cc2c[nH]c3ncc(-c4cnn(C5CN(C(C)=O)C5)c4)cc23)c1F [Trifluoroacetate salt of embodiment 26]")
-1.86
>>> quantitative_result("CCN1CCC(n2cc(-c3cnc4[nH]cc(Cc5c(F)c(OC)cc(OC)c5F)c4c3)cn2)CC1 [Trifluoroacetate salt of embodiment 12]")
-2.50
>>> quantitative_result("COc1cc(OC)c(F)c(Cc2c[nH]c3ncc(-c4ccnc(N5CCN(C)CC5)c4)cc23)c1F [Embodiment 78]")
-0.85
>>> quantitative_result("COc1cc(OC)c(F)c(Cc2c[nH]c3ncc(-c4cnn(C5CCOCC5)c4)cc23)c1F [Trifluoroacetate salt of embodiment 22]")
-1.62

###

Below are pIC50 values measured for UniProt P08581.
pIC50: −log10 of the molar value. Counter-ions that a name gives are not always drawn.
result_type: pIC50

>>> quantitative_result("CC(c1c(Cl)ccc(F)c1Cl)c1c[nH]c2ncc(-c3cnn(CCO)c3)cc12 (stereo not drawn) [Comparative Compound 1b, reference compound]")
7.95
>>> quantitative_result("CCN1CCC(n2cc(-c3cnc4[nH]c(C)c(Cc5c(F)c(OC)cc(OC)c5F)c4c3)cn2)CC1 [Hydrochloride of embodiment 74]")
8.38
>>> quantitative_result("COc1cc(OC)c(F)c(Cc2c[nH]c3ncc(-c4cn(C5CCN(C)CC5)nc4C)cc23)c1F [Trifluoroacetate salt of embodiment 35]")
7.85
>>> quantitative_result("CCN1CCc2ncc(-c3cnc4[nH]cc(Cc5c(F)c(OC)cc(OC)c5F)c4c3)cc2C1 [Trifluoroacetate salt of embodiment 53]")
6.97
>>> quantitative_result("CCN1CCC(C#N)(c2ccc(-c3cnc4[nH]cc(Cc5c(F)c(OC)cc(OC)c5F)c4c3)cc2)CC1 [Trifluoroacetate salt of embodiment 58]")
6.79
>>> quantitative_result("COc1cc(OC)c(F)c(Cc2n[nH]c3ncc(-c4cnn(CCO)c4)cc23)c1F [Trifluoroacetate salt of embodiment 1]")
5.89

###

Below are pIC50 values measured for human c-Met (Homo sapiens).
pIC50: −log10 of the molar value. Counter-ions that a name gives are not always drawn.
result_type: pIC50

>>> quantitative_result("COc1cc(OC)c(F)c(Cc2c[nH]c3ncc(-c4cnc5c(c4)CNC5)cc23)c1F [Trifluoroacetate salt of embodiment 50]")
6.87
>>> quantitative_result("COc1cc(OC)c(F)c(Cc2c[nH]c3ncc(-c4cnn(C5CNC5)c4)cc23)c1F [Trifluoroacetate salt of embodiment 24]")
7.12
>>> quantitative_result("COc1cc(OC)c(F)c(CC2=CN=C3N=CC(c4cnn(CCN5CCOCC5)c4)=CC23)c1F (stereo not shown) [Trifluoroacetate salt of embodiment 21]")
7.25
>>> quantitative_result("COc1cc(OC)c(F)c(Cc2c[nH]c3ncc(-c4cnn(CCN(C)C)c4)cc23)c1F [Hydrochloride of embodiment 28]")
7.59
>>> quantitative_result("COc1cc(OC)c(F)c(Cc2c[nH]c3ncc(-c4cnn(S(C)(=O)=O)c4)cc23)c1F [Trifluoroacetate salt of embodiment 30]")
6.77
>>> quantitative_result("COc1cc(OC)c(F)c(Cc2c[nH]c3ncc(-c4cn(C5CCNCC5)nc4C)cc23)c1F [Embodiment 32]")
8.21
>>> quantitative_result("COc1cc(OC)c(F)c(Cc2c[nH]c3ncc(-c4cnn(C5CCN(S(C)(=O)=O)CC5)c4)cc23)c1F [Trifluoroacetate salt of embodiment 18]")
7.79
>>> quantitative_result("CCN1CCC(n2cc(-c3cnc4[nH]nc(Cc5c(F)c(OC)cc(OC)c5F)c4c3)cn2)CC1 [Hydrochloride of embodiment 3]")
7.12
>>> quantitative_result("COc1cc(OC)c(F)c(Cc2c[nH]c3ncc(-c4c(C)nn(CCO)c4C)cc23)c1F [Hydrochloride of embodiment 34]")
7.06
>>> quantitative_result("COc1cc(OC)c(F)c(Cc2c[nH]c3ncc(-c4cnn(C5CCN(C(C)=O)CC5)c4)cc23)c1F [Trifluoroacetate salt of embodiment 17]")
7.93
>>> quantitative_result("COc1cc(OC)c(F)c(Cc2c[nH]c3ncc(-c4cnn(C5CCNCC5)c4)cc23)c1F [Embodiment 9]")
7.95
>>> quantitative_result("CCN1CCC(n2cc(-c3cnc4[nH]cc(Cc5c(F)c(OC)cc(OC)c5F)c4n3)cn2)CC1 [Trifluoroacetate salt of embodiment 6]")
7.13
>>> quantitative_result("CCN(CC)CCn1cc(-c2cnc3[nH]cc(Cc4c(F)c(OC)cc(OC)c4F)c3c2)cn1 [Hydrochloride of embodiment 69]")
7.45

###

Below are pIC50 values measured for human FGFR4 (Homo sapiens).
pIC50: −log10 of the molar value. Structures can show the parent of a compound that is named as a salt.
result_type: pIC50

>>> quantitative_result("COc1cc(OC)c(F)c(Cc2c[nH]c3ncc(-c4cnn(C5CCC(O)CC5)c4)cc23)c1F (stereo not shown) [Trifluoroacetate salt of embodiment 31]")
8.00
>>> quantitative_result("COc1cc(OC)c(F)c(CC2=CN=C3N=CC(c4cnn(CCN5CCOCC5)c4)=CC23)c1F (stereo not shown) [Trifluoroacetate salt of embodiment 21]")
7.60
>>> quantitative_result("COc1cc(OC)c(F)c(Cc2n[nH]c3ncc(-c4cnn(C5CCNCC5)c4)cc23)c1F [Hydrochloride of embodiment 2]")
6.86
>>> quantitative_result("COc1cc(OC)c(F)c(Cc2c[nH]c3ncc(-c4cnn(C5CN(S(C)(=O)=O)C5)c4)cc23)c1F [Trifluoroacetate salt of embodiment 23]")
7.36
>>> quantitative_result("COc1cc(OC)c(F)c(Cc2n[nH]c3ncc(-c4cnn(CCO)c4)cc23)c1F [Trifluoroacetate salt of embodiment 1]")
7.40
>>> quantitative_result("COc1cc(OC)c(F)c(Cc2c[nH]c3ncc(-c4cnn(CC(O)CO)c4)cc23)c1F (stereo not shown) [Hydrochloride of embodiment 73]")
8.60
>>> quantitative_result("CCN1CCC(n2ncc(-c3cnc4[nH]cc(Cc5c(F)c(OC)cc(OC)c5F)c4c3)c2Cl)CC1 [Hydrochloride of embodiment 40]")
7.67
>>> quantitative_result("COc1ccc(Cl)c(Cc2c[nH]c3ncc(-c4cnn(C5CCNCC5)c4)cc23)c1Cl [Trifluoroacetate salt of embodiment 10]")
5.77
>>> quantitative_result("COc1cc(OC)c(F)c(Cc2c[nH]c3ncc(-c4cnn(CC5CNC5)c4)cc23)c1F [Trifluoroacetate salt of embodiment 29]")
7.61
>>> quantitative_result("CNC(=O)c1cc(Cc2c[nH]c3ncc(-c4cnn(C5CCNCC5)c4)cc23)c(Cl)c(OC)c1 [Trifluoroacetate salt of embodiment 20]")
6.80
>>> quantitative_result("CCN1CCC(n2cc(-c3cnc4[nH]cc(Cc5c(F)ccc(OC)c5F)c4c3)c(C)n2)CC1 [Trifluoroacetate salt of embodiment 39]")
6.12
>>> quantitative_result("COc1ccc(F)c(Cc2c[nH]c3ncc(-c4cn(C5CCNCC5)nc4C)cc23)c1F [Hydrochloride of embodiment 36]")
6.16
>>> quantitative_result("COc1cc(OC)c(F)c(Cc2c[nH]c3ncc(-c4cnn(C5CCN(S(C)(=O)=O)CC5)c4)cc23)c1F [Trifluoroacetate salt of embodiment 18]")
7.53
>>> quantitative_result("CC(c1c(Cl)ccc(F)c1Cl)c1c[nH]c2ncc(-c3cnn(CCO)c3)cc12 (stereo not shown) [Comparative Compound 1b, reference compound]")
5.29
>>> quantitative_result("COc1ccc(F)c(Cc2c[nH]c3ncc(-c4cnn(C5CCNCC5)c4)cc23)c1F [Trifluoroacetate salt of embodiment 19]")
6.58
>>> quantitative_result("COc1cc(OC)c(F)c(Cc2c[nH]c3ncc(-c4cccc(C5(C#N)CCNCC5)c4)cc23)c1F [Trifluoroacetate salt of embodiment 59]")
7.83
>>> quantitative_result("COc1cc(OC)c(F)c(Cc2c[nH]c3ncc(-c4cnn(CCO)c4)nc23)c1F [Trifluoroacetate salt of embodiment 8]")
7.68
>>> quantitative_result("COc1cc(OC)c(F)c(Cc2c[nH]c3ncc(-c4cn(C)nc4C#N)cc23)c1F [Trifluoroacetate salt of embodiment 44]")
7.49
>>> quantitative_result("CCN1CCC(C#N)(c2ccc(-c3cnc4[nH]cc(Cc5c(F)c(OC)cc(OC)c5F)c4c3)cc2)CC1 [Trifluoroacetate salt of embodiment 58]")
7.63
>>> quantitative_result("COc1cc(OC)c(F)c(Cc2c[nH]c3ncc(-c4cnn(C5CCNCC5)c4)nc23)c1F [Trifluoroacetate salt of embodiment 5]")
7.69
>>> quantitative_result("COc1cc(OC)c(F)c(Cc2c[nH]c3ncc(-c4cnn(C5CCOCC5)c4)cc23)c1F [Trifluoroacetate salt of embodiment 22]")
7.53
>>> quantitative_result("COc1cc(OC)c(Cl)c(Cc2c[nH]c3ncc(-c4cnn(C5CCNCC5)c4)cc23)c1Cl [Trifluoroacetate salt of embodiment 49]")
6.28
>>> quantitative_result("CCN1CCC(n2cc(-c3cnc4[nH]cc(Cc5c(F)c(OC)cc(OC)c5F)c4c3)c(C)n2)CC1 [Hydrochloride of embodiment 37]")
7.28
>>> quantitative_result("CCN1CCC2(CC1)C(=O)Nc1cc(-c3cnc4[nH]cc(Cc5c(F)c(OC)cc(OC)c5F)c4c3)ccc12 [Trifluoroacetate salt of embodiment 55]")
7.35
